Data origin, for the record: paper PMC9688475

assayedSystem: UniProt:Q99ZW2
Sequence (Q99ZW2 whole entry): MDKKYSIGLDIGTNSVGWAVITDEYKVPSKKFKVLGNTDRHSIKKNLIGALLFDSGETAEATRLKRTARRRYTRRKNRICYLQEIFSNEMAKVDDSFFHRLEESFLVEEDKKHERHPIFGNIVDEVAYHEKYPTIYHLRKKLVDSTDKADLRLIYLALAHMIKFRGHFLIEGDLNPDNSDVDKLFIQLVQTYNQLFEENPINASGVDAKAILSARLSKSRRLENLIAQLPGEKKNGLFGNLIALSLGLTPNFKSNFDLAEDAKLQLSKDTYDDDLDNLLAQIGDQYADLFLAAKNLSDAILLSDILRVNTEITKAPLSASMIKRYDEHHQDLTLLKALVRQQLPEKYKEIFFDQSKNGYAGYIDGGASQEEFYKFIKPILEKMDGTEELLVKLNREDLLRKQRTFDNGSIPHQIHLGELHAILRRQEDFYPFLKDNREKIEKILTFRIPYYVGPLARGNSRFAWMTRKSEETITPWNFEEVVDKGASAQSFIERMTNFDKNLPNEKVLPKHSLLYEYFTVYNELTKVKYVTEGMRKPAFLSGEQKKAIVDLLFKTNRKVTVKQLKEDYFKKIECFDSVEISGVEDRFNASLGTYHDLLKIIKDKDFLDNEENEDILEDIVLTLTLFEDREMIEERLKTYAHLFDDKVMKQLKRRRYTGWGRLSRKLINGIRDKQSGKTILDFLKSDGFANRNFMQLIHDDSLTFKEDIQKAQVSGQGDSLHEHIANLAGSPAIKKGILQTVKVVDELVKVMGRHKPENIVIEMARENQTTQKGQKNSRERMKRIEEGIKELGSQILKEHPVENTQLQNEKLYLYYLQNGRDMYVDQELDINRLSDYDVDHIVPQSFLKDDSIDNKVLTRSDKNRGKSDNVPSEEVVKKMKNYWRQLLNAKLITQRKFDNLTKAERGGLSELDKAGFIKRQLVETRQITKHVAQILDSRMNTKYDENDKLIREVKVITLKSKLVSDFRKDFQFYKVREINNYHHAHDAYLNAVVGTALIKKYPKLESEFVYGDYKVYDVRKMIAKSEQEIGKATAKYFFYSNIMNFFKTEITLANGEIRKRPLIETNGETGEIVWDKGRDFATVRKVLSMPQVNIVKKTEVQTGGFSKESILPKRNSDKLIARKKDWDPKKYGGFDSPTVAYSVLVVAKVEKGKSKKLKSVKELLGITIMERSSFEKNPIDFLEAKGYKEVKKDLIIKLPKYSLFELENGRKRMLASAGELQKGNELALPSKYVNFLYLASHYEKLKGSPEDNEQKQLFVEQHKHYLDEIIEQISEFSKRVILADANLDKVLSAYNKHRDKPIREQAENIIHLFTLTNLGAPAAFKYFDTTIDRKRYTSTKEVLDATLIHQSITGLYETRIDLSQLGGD
experiment: Inhibition of SpCas9 nuclease activity in EGFP/iCas9/gRNA-EGFP reporter 293T cells (flow cytometry)
Type: cell-based
Parameters: expressed in transfected cells; host or cells: H2AX-EGFP HEK293T cells, lentiviral transduction, doxycycline-induced
conditions: 10 μM, Dox 2 μg/mL, 72 h
measuredProperty: SpCas9 inhibition in reporter cells

compound	assayedSystem	measuredProperty	result
O=C(Oc1ccc(/C=N/Nc2ccccc2)cc1)c1cc([N+](=O)[O-])cc([N+](=O)[O-])c1	UniProt:Q99ZW2	SpCas9 inhibition in reporter cells	less than 50%
CC1=NN(c2ccccc2)C(=O)C1N=Nc1nc2ccccc2s1 (stereo not drawn)	UniProt:Q99ZW2	SpCas9 inhibition in reporter cells	50%
Cc1cccc(N/N=C(/C#N)C(=O)c2ccc(Br)cc2)c1	UniProt:Q99ZW2	SpCas9 inhibition in reporter cells	less than 50%
